Molecular target: CYP2C9 (Homo sapiens, UniProt P11712)
Sequence (P11712 whole entry): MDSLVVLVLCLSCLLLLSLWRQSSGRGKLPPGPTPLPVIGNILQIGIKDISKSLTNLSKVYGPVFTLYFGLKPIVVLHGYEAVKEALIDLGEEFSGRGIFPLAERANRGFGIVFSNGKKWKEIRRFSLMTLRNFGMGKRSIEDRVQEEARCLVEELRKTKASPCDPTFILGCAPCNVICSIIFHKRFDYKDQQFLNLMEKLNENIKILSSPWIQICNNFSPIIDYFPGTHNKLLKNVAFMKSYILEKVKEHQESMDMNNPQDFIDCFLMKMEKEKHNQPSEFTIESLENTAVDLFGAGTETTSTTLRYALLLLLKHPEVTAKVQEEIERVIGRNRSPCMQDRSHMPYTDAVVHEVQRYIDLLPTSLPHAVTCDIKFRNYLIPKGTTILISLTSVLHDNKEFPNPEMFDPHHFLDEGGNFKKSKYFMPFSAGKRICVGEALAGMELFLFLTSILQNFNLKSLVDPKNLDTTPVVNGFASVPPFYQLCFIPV
Assay: Inhibition of recombinant human cytochrome P450-2C9 at 10 uM by fluorimetric analysis
Type: ADME
observation-type: inhibition at 10 µM (%)
Unit % implied. Number only.

Q: inhibition at 10 µM for CC(=O)NC[C@H]1CN(c2ccc(-c3csc(-c4nnc5ncccn45)c3)c(F)c2)C(=O)O1 ?
Ans: 40.9

###

Target: CYP2C19 (Homo sapiens, UniProt P33261)
Sequence (P33261 whole entry): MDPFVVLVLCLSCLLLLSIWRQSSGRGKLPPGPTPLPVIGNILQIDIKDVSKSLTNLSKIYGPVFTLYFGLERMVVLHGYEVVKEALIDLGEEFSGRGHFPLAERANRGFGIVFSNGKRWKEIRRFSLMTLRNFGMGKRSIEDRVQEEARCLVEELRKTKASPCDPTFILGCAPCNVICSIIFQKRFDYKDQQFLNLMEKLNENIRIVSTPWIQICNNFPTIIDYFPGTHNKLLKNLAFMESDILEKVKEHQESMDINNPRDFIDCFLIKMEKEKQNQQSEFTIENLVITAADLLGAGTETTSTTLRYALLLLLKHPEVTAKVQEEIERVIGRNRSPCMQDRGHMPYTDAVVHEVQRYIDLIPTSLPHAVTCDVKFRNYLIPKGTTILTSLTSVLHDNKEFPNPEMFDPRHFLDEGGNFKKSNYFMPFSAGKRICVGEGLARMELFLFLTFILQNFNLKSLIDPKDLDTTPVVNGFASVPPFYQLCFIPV
Assay: Inhibition of human recombinant CYP2C19 at 10 uM by fluorimetric analysis
Type: ADME
observation-type: inhibition at 10 µM
The number alone won't do; follow it with the unit.

Q: inhibition at 10 µM for CC(=O)NC[C@H]1CN(c2ccc(-c3csc(-c4nnc5ncccn45)c3)c(F)c2)C(=O)O1 ?
Ans: 36.2%
